Hey, just so you know, these numbers are from patent US20230295310A1.

# key: entry, value: Kd
# assayedTarget: T1, human CD3e/g (human, UniProt P07766 23-126; P09693 23-116)
# T1 construct: Bought soluble protein; also called hCD3e/g; human CD3e/g (Acro CDD-C52W4)
# T1 sequence (P07766 23-126, chain 1 of 2): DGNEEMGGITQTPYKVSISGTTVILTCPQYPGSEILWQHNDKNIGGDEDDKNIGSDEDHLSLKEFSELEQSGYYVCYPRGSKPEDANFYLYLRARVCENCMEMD
# T1 sequence (P09693 23-116, chain 2 of 2): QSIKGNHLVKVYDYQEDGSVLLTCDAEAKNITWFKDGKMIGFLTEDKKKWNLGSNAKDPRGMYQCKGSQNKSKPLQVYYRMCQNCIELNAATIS
# testSummary: SPR (Carterra LSA), mAb on chip
property: Kd (nM)

1. mAb 292 (antibody, V domains shown, VH and VL only) VH: EVQLLESGGGLVQPGGSRRLSCAASGFTFSTYAMSWVRQAPGKGLEWVSVINGRGDDTNYADSVKGRFTISRDNSKNILFLQMNSLRAEDTAVYYCAKKYSYYYYYMDVWGKGTTVTVSS VL: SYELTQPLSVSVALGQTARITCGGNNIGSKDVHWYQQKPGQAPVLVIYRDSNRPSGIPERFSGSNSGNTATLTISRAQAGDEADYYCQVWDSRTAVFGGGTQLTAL ... 47
2. mAb 85 (antibody, V domains shown, VH and VL only) VH: QVQLVQSGAEVKKPGASVKVSCKASGYTVTGYYMHWVRQAPGQGLEWMGWINPNSGGTNFAQNFQGRVTMTRDTSISTFYMDLNRLRSDDTAVYYCARGGAPVSYWFFDLWGRGTLVTVSS VL: DIQMTQSPSSLSASVGDRVTITCRASQSISRYLNWYQQKPGKAPKVLIYNTSSLKSGVPSRFSGSGSGTDFTLTISSLQPEDFGTFYCQQSHSTPFTFGPGTKVDIK ... 102
3. mAb 120 (antibody, V domains shown, VH and VL only) VH: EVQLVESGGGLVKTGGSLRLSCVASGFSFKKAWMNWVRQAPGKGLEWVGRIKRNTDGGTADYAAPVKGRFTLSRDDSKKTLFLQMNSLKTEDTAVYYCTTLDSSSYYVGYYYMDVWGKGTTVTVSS VL: DIQMTQSPSSVSASVGDRVTITCRASQDINNWLAWYQQKPGKAPKLLIYTASSLQSGVPSRFSGSGSGTDFTLTIGSLQPEDFATYYCQQAHSLPITFGQGTRLEIK ... 12.1
4. mAb 237 (antibody, V domains shown, VH and VL only) VH: EVQLLESGGDLVQPGGSLRLTCAASGFTFRSYAMNWVRQAPGKGLEWVSTISSRGDTTNYADSVKGRFTISRDTSKNTLYLQMDNLRADDTAVYYCSKMFSYYYYYMDVWGKGTTVTVSS VL: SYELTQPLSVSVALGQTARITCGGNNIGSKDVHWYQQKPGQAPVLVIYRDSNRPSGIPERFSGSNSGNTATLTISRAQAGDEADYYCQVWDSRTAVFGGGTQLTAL ... 5.6
